This section presents binders with their documented CDC % Relative activity values.
- target: human Claudin18.2 (human)
- protocol text: cell-based or functional assay
measured metric: CDC % Relative activity (%)

{"binder": "429G4E9 (antibody, V domains shown) VH: DVQLVESGGGLVQPGGSRKLSCAASGFTFSSFGMHWVRQAPEKGLEWVAYISSGSSPIYYADTVKGRFTISRDNPKNTLFLQMTSLRSEDTAMYFCATFYYGNSFAYWGQGTLVTVSA VL: DIVMTQSPSSLTVTAGEKVTMSCKSSQTLLNSGNQKNYLTWYQQKSGQPPKLLIYWASTRESGVPDRFTGSGSGTDFTLTISSVQAEDLAVYYCQNAYSYPVTFGSGTKVELK", "data value": 164}
{"binder": "239H12G9 (antibody, V domains shown) VH: QAYLQQSGAELVRSGASVKMSCKASGYTFTSHNIHWVKQTPGQGLEWIGYIYPGNGAPNYNQKFRGKATLTADTSSSTAYMQISSLTSEDSAVYFCARDYYGNSFVYWGQGTLVTVSA VL: DIVMTQSPSSLTEKAGEKVSMSCKSSQSLLNSGNQKNYLTWYQQKPGQPPKLLIYWASTRESGVPDRFTGSGSGTDFTLTISSVQAEDLAVYYCQNDYRYPFTFGAGTKLELK", "data value": 102}
{"binder": "185F2G12 (antibody, V domains shown) VH: QAYLQQSGAELVRSGASVKMSCKASGYTFTSYNMHWVRQTPGQGLEWIGYIYPGNGGTNYSQKFKGKASLTADTSSTTAYMQISSLTSEDSAVYFCATGRGFAYWGQGTLVTVSA VL: DIVMTQSPSSLTVTAGEKVTLSCKSSQSLFNTGNQKNYLTWYQQKPGQPPKLLIFRASTRESGVPDRFTGSGFGTDFTLTISSVQAEDLAVYYCQNDFSYPLTFGAGTKLELK", "data value": 543}
